Reference for the values: ChEMBL document CHEMBL4028831

Biological target: Cytochrome P450 3A4 (Homo sapiens, UniProt P08684)
Sequence (P08684 whole entry): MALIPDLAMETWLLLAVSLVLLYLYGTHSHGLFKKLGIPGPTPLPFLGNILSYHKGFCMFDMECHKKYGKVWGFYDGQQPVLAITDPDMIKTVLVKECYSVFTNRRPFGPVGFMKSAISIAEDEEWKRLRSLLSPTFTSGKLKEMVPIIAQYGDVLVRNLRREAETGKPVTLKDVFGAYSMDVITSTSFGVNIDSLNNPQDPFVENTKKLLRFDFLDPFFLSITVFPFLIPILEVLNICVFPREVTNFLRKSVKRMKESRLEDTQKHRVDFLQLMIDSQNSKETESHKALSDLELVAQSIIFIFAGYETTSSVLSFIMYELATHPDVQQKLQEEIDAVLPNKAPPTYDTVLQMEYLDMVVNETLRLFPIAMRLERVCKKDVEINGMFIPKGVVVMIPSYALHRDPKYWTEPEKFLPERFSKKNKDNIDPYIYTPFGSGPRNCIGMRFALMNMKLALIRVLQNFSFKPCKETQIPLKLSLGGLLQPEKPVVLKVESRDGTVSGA
Test: Time dependent inhibition of CYP3A4 (unknown origin) in presence of NADPH
Format: ADME
MEASURE: IC50

Q: Given Cc1c([C@@H](O)CN2CCC3(CC2)CCN(c2ccc(=O)n(C)n2)C3=O)ccc2c1COC2=O , state its recorded IC50.
A: > 50 µM

###

Target: Sodium channel protein type 5 subunit alpha (Homo sapiens)
Sequence (Q14524 whole entry): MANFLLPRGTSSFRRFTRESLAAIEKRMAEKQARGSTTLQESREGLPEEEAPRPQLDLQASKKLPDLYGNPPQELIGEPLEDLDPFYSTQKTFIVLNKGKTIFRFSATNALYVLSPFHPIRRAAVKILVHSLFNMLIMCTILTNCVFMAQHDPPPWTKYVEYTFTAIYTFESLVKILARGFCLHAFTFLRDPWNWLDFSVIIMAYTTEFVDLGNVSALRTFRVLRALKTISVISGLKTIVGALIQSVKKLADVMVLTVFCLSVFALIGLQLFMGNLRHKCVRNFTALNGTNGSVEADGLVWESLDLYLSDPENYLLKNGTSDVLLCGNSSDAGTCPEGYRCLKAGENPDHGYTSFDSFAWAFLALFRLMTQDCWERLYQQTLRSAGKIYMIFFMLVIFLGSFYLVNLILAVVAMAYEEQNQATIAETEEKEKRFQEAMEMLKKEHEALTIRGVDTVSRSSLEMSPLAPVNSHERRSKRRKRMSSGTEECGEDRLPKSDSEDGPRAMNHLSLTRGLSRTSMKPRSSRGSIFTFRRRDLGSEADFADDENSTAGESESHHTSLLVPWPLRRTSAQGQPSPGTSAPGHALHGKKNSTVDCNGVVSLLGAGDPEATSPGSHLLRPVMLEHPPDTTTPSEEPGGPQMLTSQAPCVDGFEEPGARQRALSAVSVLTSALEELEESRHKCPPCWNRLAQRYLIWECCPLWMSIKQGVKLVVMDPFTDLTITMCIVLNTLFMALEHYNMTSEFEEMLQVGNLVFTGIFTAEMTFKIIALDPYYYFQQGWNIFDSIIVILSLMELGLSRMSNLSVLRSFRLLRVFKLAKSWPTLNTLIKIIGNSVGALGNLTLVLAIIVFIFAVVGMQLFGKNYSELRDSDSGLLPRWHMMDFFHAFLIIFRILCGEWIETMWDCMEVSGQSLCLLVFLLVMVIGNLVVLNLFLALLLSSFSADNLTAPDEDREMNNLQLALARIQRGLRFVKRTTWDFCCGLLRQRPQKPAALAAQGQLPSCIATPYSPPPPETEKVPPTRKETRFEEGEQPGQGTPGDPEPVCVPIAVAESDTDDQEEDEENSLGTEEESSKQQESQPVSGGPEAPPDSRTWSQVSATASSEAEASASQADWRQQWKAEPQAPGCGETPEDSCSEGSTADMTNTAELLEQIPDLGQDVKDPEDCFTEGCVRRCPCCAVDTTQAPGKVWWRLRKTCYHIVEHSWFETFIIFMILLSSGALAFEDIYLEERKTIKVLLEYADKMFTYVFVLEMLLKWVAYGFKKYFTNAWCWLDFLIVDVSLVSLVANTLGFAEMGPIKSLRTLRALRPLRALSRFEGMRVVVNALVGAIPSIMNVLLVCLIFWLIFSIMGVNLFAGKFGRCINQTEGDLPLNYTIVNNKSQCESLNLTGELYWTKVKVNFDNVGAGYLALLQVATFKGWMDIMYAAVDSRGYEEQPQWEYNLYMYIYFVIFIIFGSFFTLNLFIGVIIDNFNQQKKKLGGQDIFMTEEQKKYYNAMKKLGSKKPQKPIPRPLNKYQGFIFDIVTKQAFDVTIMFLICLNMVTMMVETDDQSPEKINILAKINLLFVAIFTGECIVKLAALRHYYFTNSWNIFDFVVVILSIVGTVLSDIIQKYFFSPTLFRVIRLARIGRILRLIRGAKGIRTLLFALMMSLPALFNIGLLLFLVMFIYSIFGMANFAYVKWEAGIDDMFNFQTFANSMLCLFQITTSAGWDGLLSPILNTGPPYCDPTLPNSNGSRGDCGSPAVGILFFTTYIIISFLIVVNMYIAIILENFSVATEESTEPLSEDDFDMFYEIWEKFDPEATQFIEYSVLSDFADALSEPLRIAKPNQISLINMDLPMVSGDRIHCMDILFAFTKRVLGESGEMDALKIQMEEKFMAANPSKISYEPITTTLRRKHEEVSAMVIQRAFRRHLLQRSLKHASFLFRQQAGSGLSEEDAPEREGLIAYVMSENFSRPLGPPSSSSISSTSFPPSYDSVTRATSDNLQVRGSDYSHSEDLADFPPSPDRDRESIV
Experiment: Inhibition of Nav1.5 (unknown origin)
pIC50: −log10 of the molar value.
MEASURE: pIC50

Q: Record request: pIC50 value, item Cc1c([C@@H](O)CN2CCC3(CC2)CCN(c2ccc(=O)n(C)n2)C3=O)ccc2c1COC2=O
A: < 4.52
